The reported measurements were obtained from ChEMBL document CHEMBL4609975.

Measurement protocol: Tmax in human
Format: ADME
Parameter measured: Tmax

1) N#Cc1cc(-c2n[nH]c(-c3ccncc3)n2)ccn1 [TOPIROXOSTAT] | 1 to 2 h
2) CCCN(CCC)S(=O)(=O)c1ccc(C(=O)O)cc1 [PROBENECID] | 1 to 5 h
3) Cc1nc(-c2ccc(OCC(C)C)c(C#N)c2)sc1C(=O)O [FEBUXOSTAT] | 1 h
4) CCc1oc2ccccc2c1C(=O)c1cc(Br)c(O)c(Br)c1 [BENZBROMARONE] | 2 to 3 h
5) O=C(O)CSc1nnc(Br)n1-c1ccc(C2CC2)c2ccccc12 | 1 to 4 h
6) Oc1ncnc2[nH]ncc12 [ALLOPURINOL] | 1 h
